This collection of values is drawn from patent US20250099420A1.

testedSystem: GPR139 (Homo sapiens)
Sequence (Q6DWJ6 whole entry): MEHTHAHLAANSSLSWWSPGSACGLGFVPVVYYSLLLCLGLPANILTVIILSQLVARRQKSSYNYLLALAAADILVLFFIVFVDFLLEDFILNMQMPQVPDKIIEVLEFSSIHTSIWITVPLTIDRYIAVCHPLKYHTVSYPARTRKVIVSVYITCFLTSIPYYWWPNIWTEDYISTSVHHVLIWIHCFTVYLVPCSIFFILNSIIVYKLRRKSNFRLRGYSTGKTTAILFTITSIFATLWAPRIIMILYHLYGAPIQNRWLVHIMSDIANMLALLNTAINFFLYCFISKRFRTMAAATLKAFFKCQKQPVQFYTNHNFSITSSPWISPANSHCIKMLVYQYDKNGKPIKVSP
assayNotes: GPR139 Agonist titration / agonist counterscreen assay (calcium detection, HEK-GPR139 cells)
Format: cell-based
Design: expressed in transfected cells; host or cells: HEK Aequorin cells, Maxcyte transient transfection
runConditions: GPR139 Agonist Activity; based on logD
measure: Lipophilic Efficiency (logD)

# return Lipophilic Efficiency (logD) for CC1CC(C)CN(C(=O)C2C3C=CC4(CN(Cc5ccccc5Cl)C(=O)C24)O3)C1 (stereo not shown) , test system: GPR139 (Homo sapiens)
4.61

# return Lipophilic Efficiency (logD) for CC(NC(=O)CN1CCN(Cc2ccc(Cl)cc2)C1=O)c1ccccc1 (stereo not shown) , test system: GPR139 (Homo sapiens)
3.89

# return Lipophilic Efficiency (logD) for Nc1c(Cl)c(Cl)nc(C(=O)OCC(=O)NCc2ccccc2)c1Cl , test system: GPR139 (Homo sapiens)
4.46

# return Lipophilic Efficiency (logD) for Cc1cc(C)c2c(CC(=O)NNC(=O)COc3ccccc3)coc2c1 , test system: GPR139 (Homo sapiens)
3.92

* * *

testedSystem: UniProt Q6DWJ6
assayNotes: GPR139 Agonist titration / agonist counterscreen assay (calcium detection, HEK-GPR139 cells)
Format: cell-based
Design: expressed in transfected cells; host or cells: HEK Aequorin cells, Maxcyte transient transfection
runConditions: GPR139 Agonist Activity; fitted dose-response curve
measure: Hill Slope

# return Hill Slope for CCOC(=O)c1ccc(CSc2nnc(N)s2)cc1 [SR-01000273754] , test system: UniProt Q6DWJ6
0.89

# return Hill Slope for CCCCCc1cc(C2=CCC=C2)ccc1CC(=O)C1CCc2ccccc2C1 (stereo not drawn) [SR-00000004451] , test system: UniProt Q6DWJ6
0.70

# return Hill Slope for CCc1nn(CC(=O)NCc2cccc(Br)c2)c(=O)c2cc3occc3n12 [SR-01000099472] , test system: UniProt Q6DWJ6
0.88

# return Hill Slope for COc1cc(C(=O)NCCn2ccc3ccccc32)cc(OC)c1OC [SR-01000124399] , test system: UniProt Q6DWJ6
0.70

# return Hill Slope for CC(Oc1ccc(Cl)cc1Cl)C(=O)NNC(=O)c1ccncc1 (stereo not drawn) [SR-01000319951] , test system: UniProt Q6DWJ6
0.88

# return Hill Slope for O=C(CN1C(=O)NC2(CCc3ccccc3C2)C1=O)N1CCc2ccccc2C1 (stereo not drawn) [SR-01000062726] , test system: UniProt Q6DWJ6
0.89

* * *

testedSystem: GPR139 (Homo sapiens)
assayNotes: GPR139 Agonist titration / agonist counterscreen assay (calcium detection, HEK-GPR139 cells)
Format: cell-based
Set-up: expressed in transfected cells; host or cells: HEK Aequorin cells, Maxcyte transient transfection
runConditions: GPR139 Agonist Activity; HEK-GPR139 cells; read-out: EC50
measure: EC50 (nM)

// known answers, use as guide
Find the measured EC50 of Cc1ccc(NC(=O)CSC2=C(C#N)C(c3ccc(F)cc3)CC(=O)N2)c(C)c1 (stereo not shown) and report it.
1900

Find the measured EC50 of O=C(Cn1ncc2c1-c1ccccc1OC2)Nc1ccc(Cl)cc1 [SR-01000152099] and report it.
589

Find the measured EC50 of O=c1cc(-c2ccccc2)[nH]c2nc(OCc3cccc([N+](=O)[O-])c3)nn12 and report it.
727

A: CCOC(=O)c1ccc(NC(=O)Cn2c(C)c(C=O)c3ccccc32)cc1
B: CCN(Cc1ccccc1)C(=O)Cn1cnc2sc(O)c(C)c2c1=O
// compare measured EC50 between A and B ; output the lower one Reply with the label of the item you choose.
B
(B: 437 nM, A: 1700 nM)
